Biological target: human neutrophil elastase (Homo sapiens)
Construct: purchased Elastin Products Company
Sequence (P08246 30-267): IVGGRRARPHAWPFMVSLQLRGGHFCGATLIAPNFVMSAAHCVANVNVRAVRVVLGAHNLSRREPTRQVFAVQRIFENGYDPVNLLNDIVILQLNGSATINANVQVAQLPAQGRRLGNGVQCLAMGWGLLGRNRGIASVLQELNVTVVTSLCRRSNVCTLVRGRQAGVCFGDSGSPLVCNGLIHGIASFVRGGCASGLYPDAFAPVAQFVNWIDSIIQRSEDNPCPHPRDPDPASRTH
Experiment: Inhibitory action 2 against human neutrophil elastase (Test Example 2; fluorogenic substrate MeOSuc-AAPV-AMC, buffer with 400 mM NaCl, 0.2 mg/ml BSA)
Assay type: biochemical
Conditions: 37° C., read-out: IC50 value (compound concentration required for 50% inhibition of human neutrophil elastase)
OUTCOME MEASURE: IC50 (nM)

Completed entries (count: 5):
{"columns": ["COMPOUND", "ENDPOINT VALUE"],
 "data": [
  ["Cc1c(-c2c(C(N)=O)cnn2-c2ccc(C#N)cc2)c(=O)n(C)c(=O)n1-c1cccc(C(F)(F)F)c1", 14.5],
  ["Cc1c(-c2ccnn2-c2ccc(C#N)cc2)c(=O)n(C(C)C(N)=O)c(=O)n1-c1cccc(C(F)(F)F)c1 (stereo not drawn)", 11],
  ["Cc1c(-c2ccnn2-c2ccc(C#N)cc2)c(=O)n(C(C)CCNc2ccncc2)c(=O)n1-c1cccc(C(F)(F)F)c1 (stereo not drawn)", 14.7],
  ["COCCNC(=O)c1cnn(-c2ccc(C#N)cc2)c1-c1c(C)n(-c2cccc(C(F)(F)F)c2)c(=O)n(C)c1=O", 13.5],
  ["Cc1c(-c2ccnn2-c2ccc(C#N)cc2)c(=O)n(C(C)CN2CC(O)C2)c(=O)n1-c1cccc(C(F)(F)F)c1 (stereo not drawn)", 10.4]
]}

(I) COC(=O)NS(=O)(=O)c1cnn(-c2ccc(C#N)cc2)c1-c1c(C)n(-c2cccc(C(F)(F)F)c2)c(=O)n(C)c1=O
(II) Cc1c(-c2c(C#N)cnn2-c2ccc(C#N)cc2)c(=O)n([C@@H]2CCN(C)C2)c(=O)n1-c1cccc(C(F)(F)F)c1
For I and II , which recorded IC50 is lower? Could you answer with the label of the item you picked?
II
(II: 14 nM, I: 20.6 nM)

(A) CCn1c(=O)c(-c2c(C(C)(C)O)cnn2-c2ccc(C#N)cc2)c(C)n(-c2cccc(C(F)(F)F)c2)c1=O
(B) CCn1c(=O)c(-c2c(C(=O)N(C)CCO)cnn2-c2ccc(C#N)cc2)c(C)n(-c2cccc(C(F)(F)F)c2)c1=O
Lab note: check whether A or B has the lower measured IC50. Please respond with the label that marks your chosen entry.
B

Ref: patent US9040516B2
